Provenance of the data: ChEMBL document CHEMBL1127635

species on record: Homo sapiens; experiment: Effect on production of LTB4 in human polymorphonuclear (HPMN) leukocytes; type: functional
Measured Endpoint: pIC50
# pIC50: negative log10 of molar concentration; output just the value

Looking for the measured pIC50 of CC1Cc2c(OCc3ccc(-c4ccccc4)cn3)ccc3c2c(c(CCOC(C)c2nnn[nH]2)n3Cc2ccc(Cl)cc2)S1 (stereo not drawn) , can you help? 8.00

Looking for the measured pIC50 of CC1Cc2c(OCc3ccc(-c4ccccc4)cn3)ccc3c2c(c(CC(C)(C)Cc2nnn[nH]2)n3Cc2ccc(Cl)cc2)S1 (stereo not drawn) , can you help? 8.10

Looking for the measured pIC50 of CC(c1cc2ccccc2s1)N(O)C(N)=O (stereo not drawn) , can you help? 5.97
